- ASSAY TARGET: T1, 14-3-3γ (full length) (human, UniProt P61981 1-247)
- T1 construct: 14-3-3 protein gamma, human, full length; Expressed from a pPRoeX-Htb vector; also called 14-3-3 isoform γ; source: E. coli NiCo21(DE3), purified (nickel column, TEV cleavage, second nickel column, SEC)
- T1 sequence (looked up): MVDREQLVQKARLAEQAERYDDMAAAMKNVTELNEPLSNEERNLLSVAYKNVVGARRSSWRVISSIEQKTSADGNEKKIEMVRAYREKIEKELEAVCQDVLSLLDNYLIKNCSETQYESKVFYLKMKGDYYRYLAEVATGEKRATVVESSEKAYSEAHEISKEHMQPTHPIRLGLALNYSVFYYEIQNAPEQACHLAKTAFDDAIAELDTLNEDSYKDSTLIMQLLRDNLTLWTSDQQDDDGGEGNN
- PROCEDURE TEXT: ITC; peptide titrated into the cell containing the 14-3-3 protein, 18 injections of 2 µl, 25°C; 50 mM Tris pH 7.5, 150 mM NaCl, 5 mM MgCl2, 2 mM 2-mercaptoethanol, 0.05% Tween-20 (reducing conditions)
- STATED CONDITIONS: both partners purified
Non-standard residues stand in square brackets, D forms with d. No end group written: not given here. pS = N[C@@H](COP(=O)(O)O)C(=O)O
MEASURED ENDPOINT: Kd (nM)
Field format: number, assumed nM, no unit text.

Suppose we examine the binder Ac-LLRSH[pS]MPSAAC (also: phosphoserine at 542, position not mapped, Schnurri-3 (SHN3, transcription factor HIVEP3), human, 12-mer around phosphorylated Ser542; also called the acetylated peptide; source: synthetic peptide, bought: GenScript (purity >95%)) [SHN3pS542 peptide, N-terminally acetylated] ; what Kd value has been reported?
690
